target-system: T1, CD11b A-domain CD11bA-D140A, construct BZ348008 (human, UniProt P11215 148-337)
T1 construct: MIDAS residue D140 replaced with alanine (no MIDAS metal)
T1 chain: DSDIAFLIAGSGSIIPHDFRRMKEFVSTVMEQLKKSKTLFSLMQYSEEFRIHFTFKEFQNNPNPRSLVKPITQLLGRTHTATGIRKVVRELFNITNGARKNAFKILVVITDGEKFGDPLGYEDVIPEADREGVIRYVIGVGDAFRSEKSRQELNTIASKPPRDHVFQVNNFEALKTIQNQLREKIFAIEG
test-method-notes: counterscreen phage ELISA on coated antigen
property-name: Absorbance at 450 nM

{"binder": "Clone 5 149-014-5 (VL-Linker-VH) (scFv, From the naive human scFv phage display library) scFv: SSELTQDPAVSVALGQTVRITCQGDSLRSYYASWYQQKPGQAPVLVIYGKNNRPSGIPDRFSGSTSGNFASLTITGAQAEDGADYYCHSRDSSGNHLVFGGGTKLTVLGEGKSSGSGSESKASEVQLVQSGAEVKKPGESLKISCKGSGYSFTSYWIGWVRQMPGKGLEWMGIIYPGDSDTRYSPSFQGQVTISADKSISTAYLQWSSLKASDTAMYYCARRARGAFDIWGQGTLVTVSS", "reported": 1.85}
{"binder": "Clone 14 149-014-14 (VK-Linker-VH) (scFv, From the naive human scFv phage display library) scFv: DVVMTQSPLSLPATLGQPASISCRSSQSLVYTDGNTYLNWFQQRPGQSPRRLIYKVSNRDSGVPDRFSGSGSGTHFTLKISRVEAEDVGVYYCMQGTHWPPTFGQGTKVEIKEGKSSGSGSESKASEVQLVQSGAEVKKPGASVKVSCKASGGTFSSYAISWVRQAPGQGLEWMGGIIPIFGTANYAQKFQGRVTITADESTSTAYMELSSLRSEDTAVYYCASSGVDYWGQGTLVTVSS", "reported": 0.38}
{"binder": "Clone 6 149-014-6 (VL-linker-VH) (scFv, From the naive human scFv phage display library) scFv: QSVLTQPPSASGTPGQRVTISCSGSSSNIGSNYVSWYQQLPGTAPKLLIYDNNKRPSGIPDRFSGSKSGTSATLGITGLQTGDEADYYCGTWDSSLSALYVFGAGTKLTVLGEGKSSGSGSESKASQVQLQESGPGLVKPSETLSLTCSVSGGSTSSYYWSWIRQPPGKGLEWIGYISNSGSTNYNPSLKSRVTMSIDTSNNQFSLKLSSVTAADTAVYYCASHLGATWRWGQGTLVTVSS", "reported": 0.058}
{"binder": "Clone 13 149-014-13 VH only (other) VH: EVQLLESGGGLVQPGGSLRLSCAASGFTFSSDLMSWVRQAPGKGLEWVSAISGSGGSTYYADSVKGRFTISRDNSKNTLYLQMNSLRAEDTAVYYCAKNEVIFDYWGQGTLVTVSSASTKGLSMFDYWGQGTKVEIK", "reported": 0.228}

These data points were gathered from patent US20220204585A1.
